biological target: UniProtKB Q9NR97; experiment: TLR8 inhibition reporter assay (HEK-Blue cells, SEAP reporter, R848 stimulation); settings: read-out: TLR8 IC50, HEK-Blue cells overexpressing human TLR8, R848 15.9 μM
pIC50: −log10 of the molar value.

[
  {
    "compound": "Cc1cc(-c2[nH]c3ccc(C4CCN(C5CCCOC5)CC4)cc3c2C(C)C)ccn1 (stereo not shown)",
    "system-name": "UniProtKB Q9NR97",
    "pIC50": 8.21
  },
  {
    "compound": "CCc1c(-c2ccnc(C)c2)[nH]c2ccc(C3CCN(CC4CCN(C(C)C)CC4)CC3)cc12",
    "system-name": "UniProtKB Q9NR97",
    "pIC50": 7.92
  },
  {
    "compound": "CNC(=O)CN1CCC(c2ccc3[nH]c(-c4ccnc(C)c4)c(C(C)C)c3c2)CC1",
    "system-name": "UniProtKB Q9NR97",
    "pIC50": 8.01
  },
  {
    "compound": "Cc1cc(-c2[nH]c3ccc(C4CCN(C(=O)C5CCN(C(C)C)CC5)CC4)cc3c2C(C)C)ccn1",
    "system-name": "UniProtKB Q9NR97",
    "pIC50": 7.72
  },
  {
    "compound": "Cc1cc(-c2[nH]c3ccc(C4CCN(C(=O)[C@@H]5CCC[C@H](N)C5)CC4)cc3c2C(C)C)ccn1",
    "system-name": "UniProtKB Q9NR97",
    "pIC50": 7.62
  },
  {
    "compound": "CCc1c(-c2ccnc(N(C)C)c2)[nH]c2ccc(C3CCN(C4CCN(CC(C)C)CC4)CC3)cc12",
    "system-name": "UniProtKB Q9NR97",
    "pIC50": 5.91
  },
  {
    "compound": "Cc1cc(-c2[nH]c3ccc(C4CCN(C(=O)CNC(C)C)CC4)cc3c2C(C)C)cc(C)n1",
    "system-name": "UniProtKB Q9NR97",
    "pIC50": 8.08
  }
]

====

biological target: UniProt Q9NR97; assay: TLR8 inhibition reporter assay (HEK-Blue cells, SEAP reporter, R848 stimulation); conditions: read-out: TLR8 IC50, HEK-Blue cells overexpressing human TLR8, R848 15.9 μM
experimental-endpoint: IC50 (nM)

[
  {
    "molecule": "CNC(=O)CN1CCC(c2ccc3[nH]c(-c4cc(C)ncc4F)c(C(C)C)c3c2)CC1 [Example 654]",
    "experimental-endpoint": "IC50",
    "unit-string": "nM",
    "observed-measurement": 3.2
  },
  {
    "molecule": "Cc1cc(-c2[nH]c3ccc(C4CCN(C5CCOC5)CC4)cc3c2C(C)C)c(C)cn1 (stereo not shown) [Example 728]",
    "experimental-endpoint": "IC50",
    "unit-string": "nM",
    "observed-measurement": 1.1
  },
  {
    "molecule": "Cc1cc(-c2[nH]c3ccc(C4CCN(S(=O)(=O)c5cccnc5)CC4)cc3c2C(C)C)ccn1 [Example 543]",
    "experimental-endpoint": "IC50",
    "unit-string": "nM",
    "observed-measurement": 206
  },
  {
    "molecule": "Cc1cc(-c2[nH]c3ccc(C4CCN(C(=O)CN5CC6(COC6)C5)CC4)cc3c2C(C)C)cc(C)n1 [Example 364]",
    "experimental-endpoint": "IC50",
    "unit-string": "nM",
    "observed-measurement": 13.4
  },
  {
    "molecule": "COc1ncc(CN2CCC(c3ccc4[nH]c(-c5cc(C)ncc5F)c(C(C)C)c4c3)CC2)cn1 [Example 733]",
    "experimental-endpoint": "IC50",
    "unit-string": "nM",
    "observed-measurement": 4.2
  },
  {
    "molecule": "Cc1cc(-c2[nH]c3ccc(C4CCN(C(=O)C5CC5(F)F)CC4)cc3c2C(C)C)cc(C)n1 (stereo not shown) [Example 108]",
    "experimental-endpoint": "IC50",
    "unit-string": "nM",
    "observed-measurement": 103
  },
  {
    "molecule": "Cc1cc(-c2[nH]c3ccc(C4CCN(C(=O)CNCC(C)(C)C)CC4)cc3c2C(C)C)cc(C)n1 [Example 337]",
    "experimental-endpoint": "IC50",
    "unit-string": "nM",
    "observed-measurement": 18.3
  }
]

====

biological target: human TLR8 (Homo sapiens (Human), UniProt Q9NR97); test: TLR8 inhibition reporter assay (HEK-Blue cells, SEAP reporter, R848 stimulation); settings: read-out: TLR8 IC50, HEK-Blue cells overexpressing human TLR8, R848 15.9 μM
Sequence (Q9NR97 27-1041): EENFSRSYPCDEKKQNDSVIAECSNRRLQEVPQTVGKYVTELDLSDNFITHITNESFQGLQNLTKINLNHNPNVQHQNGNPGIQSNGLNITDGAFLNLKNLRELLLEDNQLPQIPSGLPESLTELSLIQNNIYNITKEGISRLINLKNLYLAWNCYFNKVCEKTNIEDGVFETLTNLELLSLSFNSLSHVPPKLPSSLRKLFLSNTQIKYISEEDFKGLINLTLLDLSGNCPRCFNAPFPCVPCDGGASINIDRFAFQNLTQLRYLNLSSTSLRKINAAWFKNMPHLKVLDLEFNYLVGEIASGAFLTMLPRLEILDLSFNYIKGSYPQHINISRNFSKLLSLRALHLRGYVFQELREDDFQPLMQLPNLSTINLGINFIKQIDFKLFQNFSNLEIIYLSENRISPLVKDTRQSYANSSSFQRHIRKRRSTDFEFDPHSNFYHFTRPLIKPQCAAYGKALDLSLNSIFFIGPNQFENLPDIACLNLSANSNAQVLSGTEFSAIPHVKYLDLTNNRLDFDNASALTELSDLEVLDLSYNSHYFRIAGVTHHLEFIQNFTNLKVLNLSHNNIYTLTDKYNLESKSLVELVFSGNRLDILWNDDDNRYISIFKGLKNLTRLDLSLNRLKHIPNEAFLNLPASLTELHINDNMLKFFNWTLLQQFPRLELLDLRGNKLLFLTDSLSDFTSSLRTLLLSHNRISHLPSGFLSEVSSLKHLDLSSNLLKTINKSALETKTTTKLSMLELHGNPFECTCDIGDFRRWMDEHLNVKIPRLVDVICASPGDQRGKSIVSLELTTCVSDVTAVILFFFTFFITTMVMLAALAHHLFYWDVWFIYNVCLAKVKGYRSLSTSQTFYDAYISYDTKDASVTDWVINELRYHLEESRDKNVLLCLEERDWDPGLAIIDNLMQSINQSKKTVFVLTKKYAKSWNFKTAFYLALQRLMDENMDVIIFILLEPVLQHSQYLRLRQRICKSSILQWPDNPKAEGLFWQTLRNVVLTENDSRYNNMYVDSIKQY

[
  {
    "chemical-structure": "Cc1cc(-c2[nH]c3ccc(C4CCN(C(=O)[C@H]5CCC[C@@]5(C)N)CC4)cc3c2C(C)C)ccn1",
    "system-name": "human TLR8 (Homo sapiens (Human), UniProt Q9NR97)",
    "IC50 (nM)": 15
  },
  {
    "chemical-structure": "Cc1cc(-c2[nH]c3ccc(C4CCN(C)CC4)cc3c2CC(F)F)cc(C)n1",
    "system-name": "human TLR8 (Homo sapiens (Human), UniProt Q9NR97)",
    "IC50 (nM)": 81.2
  },
  {
    "chemical-structure": "CCCN(CCO)CC(=O)N1CCC(c2ccc3[nH]c(-c4cc(C)nc(C)c4)c(C(C)C)c3c2)CC1",
    "system-name": "human TLR8 (Homo sapiens (Human), UniProt Q9NR97)",
    "IC50 (nM)": 26
  },
  {
    "chemical-structure": "Cc1cc(-c2[nH]c3ccc(C4CCN(C(=O)CN(C)C5CCCCC5)CC4)cc3c2C(C)C)cc(C)n1",
    "system-name": "human TLR8 (Homo sapiens (Human), UniProt Q9NR97)",
    "IC50 (nM)": 57
  }
]

====

biological target: human TLR8 (Homo sapiens (Human), UniProt Q9NR97); experiment: TLR8 inhibition reporter assay (HEK-Blue cells, SEAP reporter, R848 stimulation); details: TLR8 IC50, HEK-Blue cells overexpressing human TLR8, R848 15.9 μM;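 note: compounds tested from 0.05 nM to 50 µM, 22 h at 37 °C, SEAP measured with HEK-Blue Detection, inhibition relative to agonist plus DMSO versus a known inhibitor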
pIC50: −log10 of the molar value.
Here the recorded pIC50 is given for each entry.

[
  {
    "molecule": "Cc1c(-c2[nH]c3ccc(C4CCNCC4)cc3c2C(C)C)ccnc1N",
    "pIC50": 7.04
  },
  {
    "molecule": "Cc1cc(-c2[nH]c3ccc(C4CCN(C(=O)C(F)F)CC4)cc3c2C(C)C)cc(C)n1",
    "pIC50": 7.66
  },
  {
    "molecule": "Cc1cc(-c2[nH]c3ccc(C4CCN(C(=O)CNCC5(C)CC5)CC4)cc3c2C(C)C)cc(C)n1",
    "pIC50": 7.64
  },
  {
    "molecule": "Cc1cc(-c2[nH]c3ccc(C4CCN(C(=O)CNCC(C)(C)N5CCOCC5)CC4)cc3c2C(C)C)cc(C)n1",
    "pIC50": 7.69
  },
  {
    "molecule": "Cc1cc(-c2[nH]c3ccc(C4CCN(CC(=O)N5CC(O)C5)CC4)cc3c2C(C)C)cc(C)n1",
    "pIC50": 8.15
  },
  {
    "molecule": "CCNC(=O)CN1CCC(c2ccc3[nH]c(-c4cc(C)nc(C)c4)c(C(C)C)c3c2)CC1",
    "pIC50": 7.85
  },
  {
    "molecule": "Cc1cc(-c2[nH]c3ccc(C4CCN(CC(=O)N5CCCC5C)CC4)cc3c2C(C)C)cc(C)n1 (stereo not shown)",
    "pIC50": 7.91
  },
  {
    "molecule": "Cc1cc(-c2[nH]c3ccc(C4CCNCC4O)cc3c2C(C)C)cc(C)n1 (single isomer, unassigned) [Example 488B]",
    "pIC50": 7.48
  },
  {
    "molecule": "CCOCCNC(=O)CN1CCC(c2ccc3[nH]c(-c4cc(C)nc(C)c4)c(C(C)C)c3c2)CC1",
    "pIC50": 8.10
  },
  {
    "molecule": "Cc1cc(-c2[nH]c3ccc(C4CCN(C(=O)C5CCN(C)CC5)CC4)cc3c2C(C)C)cc(C)n1",
    "pIC50": 8.09
  }
]

====

molecular target: human TLR9 (Homo sapiens (Human)); test: TLR9 inhibition reporter assay (HEK-Blue cells, SEAP reporter, ODN2006 stimulation); conditions: read-out: TLR9 IC50, HEK-Blue cells overexpressing human TLR9, ODN2006 5 nM;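 note: compounds tested over 0.05 nM to 50 µM, 22 h incubation, inhibition taken as SEAP signal drop from agonist plus DMSO wells toward a known inhibitor control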
Sequence (Q9NR96 26-1032): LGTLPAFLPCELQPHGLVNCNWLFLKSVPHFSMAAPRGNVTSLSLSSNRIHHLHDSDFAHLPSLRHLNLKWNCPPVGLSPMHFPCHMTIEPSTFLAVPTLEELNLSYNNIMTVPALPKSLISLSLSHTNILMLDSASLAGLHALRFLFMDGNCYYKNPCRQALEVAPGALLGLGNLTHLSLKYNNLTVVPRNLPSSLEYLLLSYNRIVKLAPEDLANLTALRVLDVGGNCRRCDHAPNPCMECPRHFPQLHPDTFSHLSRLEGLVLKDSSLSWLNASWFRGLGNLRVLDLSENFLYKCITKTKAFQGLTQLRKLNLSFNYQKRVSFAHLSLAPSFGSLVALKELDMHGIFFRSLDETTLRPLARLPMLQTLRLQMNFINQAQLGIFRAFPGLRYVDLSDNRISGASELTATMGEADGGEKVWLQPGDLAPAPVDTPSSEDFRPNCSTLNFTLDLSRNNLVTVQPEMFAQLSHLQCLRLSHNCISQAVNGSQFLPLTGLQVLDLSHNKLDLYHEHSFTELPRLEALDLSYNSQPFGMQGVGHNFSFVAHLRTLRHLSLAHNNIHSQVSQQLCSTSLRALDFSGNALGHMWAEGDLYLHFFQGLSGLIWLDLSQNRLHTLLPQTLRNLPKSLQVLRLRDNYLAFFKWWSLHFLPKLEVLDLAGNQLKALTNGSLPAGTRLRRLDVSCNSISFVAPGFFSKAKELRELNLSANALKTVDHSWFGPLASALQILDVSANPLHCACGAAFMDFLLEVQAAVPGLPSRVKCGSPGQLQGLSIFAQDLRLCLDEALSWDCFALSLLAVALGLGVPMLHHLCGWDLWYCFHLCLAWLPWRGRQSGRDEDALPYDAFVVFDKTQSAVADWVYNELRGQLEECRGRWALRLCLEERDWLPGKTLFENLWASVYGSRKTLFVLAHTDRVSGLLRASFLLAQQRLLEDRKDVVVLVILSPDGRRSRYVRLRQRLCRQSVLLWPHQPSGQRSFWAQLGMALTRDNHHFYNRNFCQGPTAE
Here the recorded IC50 is given for each entry.
experimental-endpoint: IC50 (nM)

[
  {
    "molecule": "Cc1cc(-c2[nH]c3ccc(C4CCN(C(=O)C5CCN(C)C(=O)C5)CC4)cc3c2C(C)C)ccn1 (centres unmarked)",
    "experimental-endpoint": "IC50",
    "unit-string": "nM",
    "value-modifier": ">",
    "observed-measurement": 50000
  },
  {
    "molecule": "Cc1cc(-c2[nH]c3ccc(C4CCN(C(=O)CN(C)C)CC4)cc3c2CC(F)F)cc(C)n1",
    "experimental-endpoint": "IC50",
    "unit-string": "nM",
    "value-modifier": "=",
    "observed-measurement": 1480
  },
  {
    "molecule": "Cc1cc(-c2[nH]c3ccc(C4CCN(C(=O)C5(N)COC5)CC4)cc3c2C(C)C)ccn1",
    "experimental-endpoint": "IC50",
    "unit-string": "nM",
    "value-modifier": ">",
    "observed-measurement": 50000
  },
  {
    "molecule": "CCC(C)CN(CCO)C(=O)CN1CCC(c2ccc3[nH]c(-c4cc(C)nc(C)c4)c(C(C)C)c3c2)CC1 (centres unmarked)",
    "experimental-endpoint": "IC50",
    "unit-string": "nM",
    "value-modifier": "=",
    "observed-measurement": 710
  },
  {
    "molecule": "Cc1cc(-c2[nH]c3ccc(C4CCNCC4)cc3c2C2CC2)cc(C)n1",
    "experimental-endpoint": "IC50",
    "unit-string": "nM",
    "value-modifier": "=",
    "observed-measurement": 122
  },
  {
    "molecule": "COc1ncc(CN2CCC(c3ccc4[nH]c(-c5cc(C)nc(C)c5)c(C(C)C)c4c3)CC2)cn1",
    "experimental-endpoint": "IC50",
    "unit-string": "nM",
    "value-modifier": "=",
    "observed-measurement": 369
  },
  {
    "molecule": "Cc1cc(-c2[nH]c3ccc(C4CCN(C(=O)CN5CCN(CCO)CC5)CC4)cc3c2C(C)C)cc(C)n1",
    "experimental-endpoint": "IC50",
    "unit-string": "nM",
    "value-modifier": "=",
    "observed-measurement": 542
  },
  {
    "molecule": "C=C(c1c(-c2cc(C)nc(C)c2)[nH]c2ccc(C3CCNCC3)cc12)C(F)(F)F",
    "experimental-endpoint": "IC50",
    "unit-string": "nM",
    "value-modifier": "=",
    "observed-measurement": 92
  }
]
